For each record, write down the corresponding binding relative to P54AR4-83v2 parent.
measured-target: EGFR (form used in the assay not stated) (human, UniProt P00533 25-645, limits assumed)
method: ELISA, NEM conjugate, 100 nM
Quick reminder: number only, in ratio, skip the unit.

Given the entry P54AR4-83v2 K79C, NEM conjugate (designed binder, not shown: small tags and cut ends, N-ethyl maleimide (NEM) on Cys 79) LPAPKNLVVSEVTEDSARLSWDDPWAFYESFLIQYQESEKVGEAIVLTVPGSERSYDLTGLKPGTEYTVSIYGVHNVYCDTNMRGLPLSAIFTT , report its measured binding relative to P54AR4-83v2 parent.
0.99

Given the entry P54AR4-83v2 V49C, NEM conjugate (designed binder, not shown: small tags and cut ends, N-ethyl maleimide (NEM) on Cys 49) LPAPKNLVVSEVTEDSARLSWDDPWAFYESFLIQYQESEKVGEAIVLTCPGSERSYDLTGLKPGTEYTVSIYGVHNVYKDTNMRGLPLSAIFTT , report its measured binding relative to P54AR4-83v2 parent.
1.01
